Would you kindly list Population Apoptotic (%) for each of these compounds?
- System: U2OS
- experimentSummary: Multiplex assay against U2OS
- Assay type: toxicity, cell-based
- assaySetup: human, 24 h, 1 µM, compound concentration 1 uM, replicate 2
Numbers only, in %.

Past entries and their recorded results:
Short answer for O=C(Nc1cc(-c2ccccc2)nn1-c1ccccc1F)c1ccc([N+](=O)[O-])cc1 : Population Apoptotic (%) was 100

Short answer for O=C(NCCNCC(O)COc1ccc(O)cc1)N1CCOCC1.O=C(NCCNCC(O)COc1ccc(O)cc1)N1CCOCC1.O=C(O)/C=C/C(=O)O (centres undefined) [XAMOTEROL FUMARATE] : Population Apoptotic (%) was 80

Short answer for CCc1nn2c(C)cc(C)nc2c1Cc1ccc(-c2nnc(C3CCNCC3)o2)cc1 : Population Apoptotic (%) was 87

Proceeding to the next compound to report its Population Apoptotic (%).
Short answer for Cc1cc(O)c(-c2ccc([C@@H](C)CN(C)C)cc2)c2c1[nH]c(=O)c1sccc12 : Population Apoptotic (%) was 100

* * *

- Test system: HEK-293T
- experimentSummary: Multiplex assay against HEK293T
- Format: toxicity, cell-based
- assaySetup: human, 24 h, 1 µM, compound concentration 1 uM, replicate 2
Non-standard residues stand in square brackets, D forms with d. Residues, ends and D or L forms follow the SMILES beside them.
observedProperty: Population Mitotic Cells (%)
Answers are plain numbers, in %.

Past entries and their recorded results:
Short answer for CN1CCC(C(=O)c2cccc(NC(=O)c3c(F)cc(F)cc3F)n2)CC1 : Population Mitotic Cells (%) was 57

Short answer for CCCCC[C@H](O)/C=C/[C@H]1[C@H](O)CC(=O)[C@@H]1CCCCCCC(=O)O [ALPROSTADIL] : Population Mitotic Cells (%) was 65

Short answer for COc1cc(C(=O)N2CC[C@@H](O)[C@@H](N)C2)cc2nc(-c3cc4ccccc4n3CC3CC3)n(C)c12.Cl : Population Mitotic Cells (%) was 39

Short answer for Cc1cc(=O)n(C)c2cc(N3C(=O)CC[C@H](NS(=O)(=O)CC(C)C)[C@H]3c3ccc(Cl)cc3)ccc12 : Population Mitotic Cells (%) was 63

Short answer for CCC(=O)OCC(=O)[C@@]1(OC(=O)CC)[C@@H](C)C[C@H]2[C@@H]3CCC4=CC(=O)C=C[C@]4(C)[C@@]3(Cl)[C@@H](O)C[C@@]21C [BECLOMETHASONE DIPROPIONATE] : Population Mitotic Cells (%) was 56

Short answer for C=CCN1C[C@H](C(=O)N(CCCN(C)C)C(=O)NCC)C[C@@H]2c3cccc4[nH]cc(c34)C[C@H]21 [CABERGOLINE] : Population Mitotic Cells (%) was 59

Short answer for O=C(Nc1cc(-c2ccccc2)nn1-c1ccccc1F)c1ccc([N+](=O)[O-])cc1 : Population Mitotic Cells (%) was 64

Short answer for CC(C)C[C@@H]1NC(=O)[C@@H](C(C)C)NC(=O)[C@@H]2CCCN2C(=O)[C@@H](CC(=O)O)NC(=O)[C@@H](Cc2c[nH]c3ccccc23)NC1=O [BQ-123] (cyclo(L[dW][dD]P[dV])) : Population Mitotic Cells (%) was 59

Value sought for every listed molecule: Population Mitotic Cells (%).
1. COCCCN1CCC(NC(=O)c2cc(Cl)c(N)c3c2OCC3)CC1 [PRUCALOPRIDE]
2. CCc1nn2c(C)cc(C)nc2c1Cc1ccc(-c2nnc(C3CCNCC3)o2)cc1
3. Cc1c(Cc2ccc3ccccc3n2)c2cc(F)ccc2n1CC(=O)O [TIMAPIPRANT]
4. CC(C)C[C@H](CO)Nc1nc(S[C@@H](C)c2ccccc2)nc2nc(N)sc12 [AZD-8797]

**A:**
1: 71; 2: 65; 3: 46; 4: 54

Value sought for every listed molecule: Population Mitotic Cells (%).
1. Nc1nc(CC(=O)Nc2ccc(CCNC[C@H](O)c3ccccc3)cc2)cs1 [MIRABEGRON]
2. O=c1ccc2ccc(OCCCCN3CCN(c4cccc5sccc45)CC3)cc2[nH]1 [BREXPIPRAZOLE]

**A:**
[72, 57]

Value sought for every listed molecule: Population Mitotic Cells (%).
1. COC(c1ccccc1)(c1ccccc1)[C@H](Oc1nc(C)cc(C)n1)C(=O)O [AMBRISENTAN]
2. CN1CCN(c2ccc(Nc3c4ccccc4nc4ccccc34)cc2)CC1.Cl.Cl.O

**A:**
56
53

* * *

- Test system: Fibroblast
- experimentSummary: Multiplex assay against human fibroblast
- Assay type: toxicity, cell-based
- assaySetup: 24 h, 1 µM, compound concentration 1 uM, replicate 1
observedProperty: Population Mitochondria Different-Phenotype (%)

Short answer for CN1C[C@H](C(=O)N[C@]2(C)O[C@@]3(O)[C@@H]4CCCN4C(=O)[C@H](Cc4ccccc4)N3C2=O)C[C@@H]2c3cccc4[nH]cc(c34)C[C@H]21.CS(=O)(=O)O [DIHYDROERGOTAMINE MESYLATE] : Population Mitochondria Different-Phenotype (%) was 0%

Short answer for CCCCCCNC(=O)Nc1ccc(S(=O)(=O)Nc2ccc(CCNC[C@H](O)COc3ccc(O)cc3)cc2)cc1 [L-755507] : Population Mitochondria Different-Phenotype (%) was 3%

Value sought for every listed compound: Population Mitochondria Different-Phenotype (%).
1. O=c1ccc2ccc(OCCCCN3CCN(c4cccc5sccc45)CC3)cc2[nH]1 [BREXPIPRAZOLE]
2. CCC(=O)OCC(=O)[C@@]1(OC(=O)CC)[C@@H](C)C[C@H]2[C@@H]3CCC4=CC(=O)C=C[C@]4(C)[C@@]3(Cl)[C@@H](O)C[C@@]21C [BECLOMETHASONE DIPROPIONATE]
3. COc1cc2nc(N3CCN(C(=O)COc4c(OC)cccc4C(C)C)CC3)nc(N)c2cc1OC.Cl.Cl
4. COc1ccc2[nH]c(I)c(CCNC(C)=O)c2c1 [IODOMELATONIN]
5. N[C@](CC1c2ccccc2Oc2ccccc21)(C(=O)O)[C@H]1C[C@@H]1C(=O)O
6. COc1cc(C(=O)N2CC[C@@H](O)[C@@H](N)C2)cc2nc(-c3cc4ccccc4n3CC3CC3)n(C)c12.Cl
7. COc1cc(OC2CCN(C(C)=O)CC2)ccc1C(=O)N1CCC(N2C(=O)OCc3ccccc32)CC1
8. Cc1ccc(OCC(O)C(C)NC(C)C)c2c1CCC2.Cl (stereo unspecified)

**A:**
1: 8%; 2: 2%; 3: 9%; 4: 7%; 5: 2%; 6: 5%; 7: 4%; 8: 5%

Value sought for every listed compound: Population Mitochondria Different-Phenotype (%).
1. COc1cc(Nc2ncc3c(n2)-c2ccc(Cl)cc2C(c2c(F)cccc2OC)=NC3)ccc1C(=O)O [ALISERTIB]
2. COC(c1ccccc1)(c1ccccc1)[C@H](Oc1nc(C)cc(C)n1)C(=O)O [AMBRISENTAN]
3. C=CCN1C[C@H](C(=O)N(CCCN(C)C)C(=O)NCC)C[C@@H]2c3cccc4[nH]cc(c34)C[C@H]21 [CABERGOLINE]
4. Nc1nc(-c2ccco2)c2cnn(Cc3ccccc3F)c2n1
5. O=C(Nc1cc(-c2ccccc2)nn1-c1ccccc1F)c1ccc([N+](=O)[O-])cc1
6. COCCCN1CCC(NC(=O)c2cc(Cl)c(N)c3c2OCC3)CC1 [PRUCALOPRIDE]

**A:**
1: 6%; 2: 4%; 3: 3%; 4: 2%; 5: 0%; 6: 3%

* * *

- Tested on: Fibroblast
- experimentSummary: Multiplex assay against human fibroblast
- Format: toxicity, cell-based
- assaySetup: 24 h, 10 µM, compound concentration 10 uM, replicate 2
Would you kindly list Population Membrane Permeable-Phenotype (%) for each of these molecules?
One number for each entry, in %.

Value sought for every listed molecule: Population Membrane Permeable-Phenotype (%).
1. OCCCNc1cc(-c2ccnc(Nc3cccc(Cl)c3)n2)ccn1
2. COc1cc(OC2CCN(C(C)=O)CC2)ccc1C(=O)N1CCC(N2C(=O)OCc3ccccc32)CC1
3. CN(C)C/C=C/C(=O)Nc1ccc(C(=O)N2CCCC(Nc3ncc(Cl)c(-c4c[nH]c5ccccc45)n3)C2)cc1 (configuration not stated)
4. Cc1sc2c(c1C)C(c1ccc(Cl)cc1)=N[C@H](CC(=O)OC(C)(C)C)c1nnc(C)n1-2
5. COCCn1c(C)c(C)s/c1=N\C(=O)C1C(C)(C)C1(C)C
6. C[C@H](NC(=O)CNC(=O)c1cccc(Cl)c1)c1ccccc1
7. Cn1cc(C(=O)OCC2CCN(CCNS(C)(=O)=O)CC2)c2ccccc21

**A:**
12
3
5
4
11
5
3

* * *

- Tested on: Fibroblast
- experimentSummary: Multiplex assay against human fibroblast
- Format: toxicity, cell-based
- assaySetup: 48 h, 10 µM, compound concentration 10 uM, replicate 2
observedProperty: Population Apoptotic (%)
Answer format: value, then unit.

Entry COC(c1ccccc1)(c1ccccc1)[C@H](Oc1nc(C)cc(C)n1)C(=O)O [AMBRISENTAN] , Fibroblast data, Population Apoptotic (%) value: 71%

Entry CN(C)C(=O)Cn1cc(-c2ccc(-c3nnc4ccccn34)cc2)cn1 , Fibroblast data, Population Apoptotic (%) value: 60%

Entry CCC(=O)OCC(=O)[C@@]1(OC(=O)CC)[C@@H](C)C[C@H]2[C@@H]3CCC4=CC(=O)C=C[C@]4(C)[C@@]3(Cl)[C@@H](O)C[C@@]21C [BECLOMETHASONE DIPROPIONATE] , Fibroblast data, Population Apoptotic (%) value: 37%

Entry COc1cc2nc(N3CCN(C(=O)COc4c(OC)cccc4C(C)C)CC3)nc(N)c2cc1OC.Cl.Cl , Fibroblast data, Population Apoptotic (%) value: 30%

Proceeding to the next molecule to report its Population Apoptotic (%).
Entry COCCCN1CCC(NC(=O)c2cc(Cl)c(N)c3c2OCC3)CC1 [PRUCALOPRIDE] , Fibroblast data, Population Apoptotic (%) value: 62%
